Biological target: human α2B adrenergic receptor (Homo sapiens)
Sequence (P18089 1-450): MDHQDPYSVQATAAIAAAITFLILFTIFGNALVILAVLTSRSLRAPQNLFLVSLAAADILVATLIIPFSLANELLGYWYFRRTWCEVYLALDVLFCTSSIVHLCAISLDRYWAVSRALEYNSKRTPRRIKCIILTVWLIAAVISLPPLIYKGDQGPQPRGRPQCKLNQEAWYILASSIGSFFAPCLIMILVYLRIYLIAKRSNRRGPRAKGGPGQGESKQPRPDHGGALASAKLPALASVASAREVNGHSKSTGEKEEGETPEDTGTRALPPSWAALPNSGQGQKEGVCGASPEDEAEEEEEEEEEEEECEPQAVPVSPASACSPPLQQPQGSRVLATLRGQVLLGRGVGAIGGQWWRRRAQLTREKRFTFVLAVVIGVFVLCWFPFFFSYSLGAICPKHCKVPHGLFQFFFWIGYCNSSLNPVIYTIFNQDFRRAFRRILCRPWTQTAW
Counter-ions that a name gives are not always drawn.
measured.metric: pKi
As a rule, pKi stands for the negative log10 of the concentration, concentration in M.

INPUT: Answer with reported pKi of CC(=O)O[C@H]1CC[C@H](Nc2nc(Nc3ccccc3)c3ccccc3n2)CC1 [Compound 7, Hydrochloride]
OUTPUT: 6.09
